Biological target: T1, NOD mouse SIRP-α D1 domain (mouse (NOD strain))
T1 chain: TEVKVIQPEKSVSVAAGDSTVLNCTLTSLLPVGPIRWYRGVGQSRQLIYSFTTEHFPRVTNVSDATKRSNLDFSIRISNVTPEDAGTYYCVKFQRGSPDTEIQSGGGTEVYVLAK
Assay: SPR, ProteOn, antibody on chip
Experimental: All experiments were performed at 25° C. using a SPR-based ProteOn XPR36 biosensor (BioRad, Inc, Hercules, Calif.) equipped with GLC or NLC sensor chips. […] For the method using GLC chip, the analytes were injected and flowed over anti-SIRPα antibodies immobilized (˜1000 RUs) on GLC chips using Proteon™ Amine Coupling Kit. […] Association times were monitored for 90 s at 100 μL/min, and dissociation times were monitored for 1200 s. […]
Overview of recorded koff for various binders
Value expressed in s⁻¹; do not type the unit.

Request: I have this binder here, AB66c (antibody, mouse IgG2a, V domains shown, Full-length mouse IgG2a) VH: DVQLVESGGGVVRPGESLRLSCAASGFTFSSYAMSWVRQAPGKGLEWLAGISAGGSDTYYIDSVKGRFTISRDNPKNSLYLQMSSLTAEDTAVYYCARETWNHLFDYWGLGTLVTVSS VL: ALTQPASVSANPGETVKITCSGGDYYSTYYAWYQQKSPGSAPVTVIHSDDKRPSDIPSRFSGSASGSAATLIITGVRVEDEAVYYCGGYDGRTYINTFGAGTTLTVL , and I need its recorded koff.
Result: 0.000232

Next, consider the following binder.
Request: I have this binder here, AB21c (antibody, mouse IgG2a, V domains shown, Full-length mouse IgG2a) VH: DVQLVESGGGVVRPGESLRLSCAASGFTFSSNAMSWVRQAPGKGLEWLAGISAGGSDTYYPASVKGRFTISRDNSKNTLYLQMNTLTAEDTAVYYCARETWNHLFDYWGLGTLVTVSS VL: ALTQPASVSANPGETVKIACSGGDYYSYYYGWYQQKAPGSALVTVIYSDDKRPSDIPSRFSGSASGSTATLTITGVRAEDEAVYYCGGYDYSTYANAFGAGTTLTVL , and I need its recorded koff.
Result: 0.000479

Provenance of the data: patent US20210363269A1
